Taken from ChEMBL document CHEMBL1129269.

# ASSAYED_TARGET: Adrenergic receptor alpha-1 (Rattus norvegicus, UniProt P15823+P23944+P43140)
# PROCEDURE_TEXT: Binding affinity against Alpha-1 adrenergic receptor in rat brain membrane using [3H]prazosin as radioligand
# Type: cell membranes
// returns 0.0 unless IC50 is strictly below 500 nM, in which case 1.0

[[record]]
molecule = "COc1cccc2c1CCCC2CNCCN1CCN(c2ccccc2)CC1 (stereo unspecified)"
class_name = 0.0

[[record]]
molecule = "COc1cccc2c1CCCC2CCCN1CCN(c2ccccc2)CC1 (stereo unspecified)"
class_name = 1.0

[[record]]
molecule = "COc1cccc2c1CCCC2NC(=O)CCN1CCN(c2ccccn2)CC1 (stereo unspecified)"
class_name = 0.0

[[record]]
molecule = "COc1cccc2c1CCCC2CCCN1CCN(c2ccccn2)CC1 (stereo unspecified)"
class_name = 1.0

[[record]]
molecule = "COc1ccccc1N1CCN(CCC(=O)NC2CCCc3c(OC)cccc32)CC1 (stereo unspecified)"
class_name = 1.0

[[record]]
molecule = "COc1ccccc1N1CCN(CCNC2CCCc3c(OC)cccc32)CC1 (stereo unspecified)"
class_name = 1.0

[[record]]
molecule = "COc1cccc2c1CCCC2NCCN1CCN(c2ccccn2)CC1 (stereo unspecified)"
class_name = 0.0

[[record]]
molecule = "COc1cccc2c1CCCC2NC(=O)CCN1CCN(c2ccccc2)CC1 (stereo unspecified)"
class_name = 1.0

[[record]]
molecule = "COc1cccc2c1CCCC2C(=O)N(C)CCCN1CCN(c2ccccc2)CC1 (stereo unspecified)"
class_name = 1.0

[[record]]
molecule = "COc1cccc2c1CCCC2C(=O)NCCN1CCN(c2ccccn2)CC1 (stereo unspecified)"
class_name = 0.0

[[record]]
molecule = "COc1ccccc1N1CCN(CCN(C)C2CCCc3c(OC)cccc32)CC1 (stereo unspecified)"
class_name = 0.0

